The reported numbers originate from patent US20190152992A1.

log10(IC50) overview
Molecular target: human alpha2C receptors (Homo sapiens, UniProt P18825)
Sequence (P18825 1-462): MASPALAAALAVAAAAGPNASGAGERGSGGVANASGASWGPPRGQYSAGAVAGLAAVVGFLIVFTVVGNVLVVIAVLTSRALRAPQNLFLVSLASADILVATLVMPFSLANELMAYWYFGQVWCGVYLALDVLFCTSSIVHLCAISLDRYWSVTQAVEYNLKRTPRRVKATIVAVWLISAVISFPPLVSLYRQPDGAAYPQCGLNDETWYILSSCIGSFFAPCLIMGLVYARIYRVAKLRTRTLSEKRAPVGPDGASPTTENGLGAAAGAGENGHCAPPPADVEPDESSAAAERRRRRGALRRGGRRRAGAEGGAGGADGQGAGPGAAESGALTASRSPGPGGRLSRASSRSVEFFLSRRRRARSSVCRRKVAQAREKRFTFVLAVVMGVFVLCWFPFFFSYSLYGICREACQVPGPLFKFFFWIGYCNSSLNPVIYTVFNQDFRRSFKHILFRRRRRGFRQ
Assay: Determination of alpha2C antagonistic activity in vitro (FLIPR calcium assay)
Kindly note that the scale is log10 and the underlying IC50 is in nM.

# count of solved cases: 5
• COc1ccc2c(c1)CN([C@H]1CCCN(C[C@H]3COc4ccccc4O3)C1)C2=O = -0.05
• CC1C(=O)N([C@H]2CCCN(C[C@H]3COc4ccccc4O3)C2)C(=O)N1C (some centres unmarked) = 0.32
• O=C1C2CC2C(=O)N1[C@H]1CCCN(C[C@H]2COc3ccccc3O2)C1 (some centres unmarked) = -0.36
• Cc1nc2cnccc2n1[C@H]1CCCN(C[C@H]2COc3ccccc3O2)C1 = 0.54
• COc1ccc2c(c1)C(=O)N([C@H]1CCCN(C[C@H]3COc4ccccc4O3)C1)C2 = -0.04

Incoming: Look up log10(IC50): Cn1ncc2c1C(=O)N([C@H]1CCCN(C[C@H]3COc4ccccc4O3)C1)C2
Outgoing: 1.95

Incoming: Look up log10(IC50): CN1C(=O)N([C@H]2CCCN(C[C@H]3COc4ccccc4O3)C2)CC1(C)C
Outgoing: -0.96

Incoming: Look up log10(IC50): C[C@@]1(c2ccccc2)CCN([C@H]2CCCN(C[C@H]3COc4ccccc4O3)C2)C1=O
Outgoing: 2.56
